Test system: OVCAR-4 ovarian
// GI50 lookup, one value per entry

Record excerpt, results attached:
{"compound": "O=C(Cc1csc2nc(-c3ccc(Br)cc3)cn12)N/N=C/c1ccc(O)cc1", "GI50": "> 100 µM"}
{"compound": "CN1CCN(c2nc(-c3ccncc3)nc3sc4c(c23)CCCCCC4)CC1", "GI50": "12.7 µM"}

Exam item: Enter reported GI50 observed with OVCAR-4 ovarian for COc1ccccc1CNCCCCCCCCCCCCN1C(=O)c2ccc3c4c(ccc(c24)C1=O)C(=O)N(CCCCCCCCCCCCNCc1ccccc1OC)C3=O
Marked response: > 50 µM

Exam item: Subsequent entry: CO[C@]1(CN2CCN3CCCC[C@@H]3C2)/C=C/C[C@H](C)[C@@H](C)S(=O)(=O)NC(=O)c2ccc3c(c2)N(C[C@@H]2CC[C@H]21)C[C@@]1(CCCc2cc(Cl)ccc21)CO3
Marked response: 1.69 µM

Exam item: Also need CC1CC2(C)CC(=O)C1C1C(=O)N(CCN3CCCCC3)C(=O)C12 (centres undefined) , thanks.
Marked response: > 100 µM

Exam item: Now the same for Oc1[nH]c2cc(Cl)ccc2c1/C=c1/ccc2c(c1)N=C(c1cc(F)cc(F)c1)N=2
Marked response: 4.25 µM

Exam item: Likewise for CO[C@@]12[C@@H]3NC3CN1C1=C(C(=O)C(N)=C(C)C1=O)[C@@H]2COC(N)=O (some centres undefined) ?
Marked response: 2.22 µM

Exam item: Try O=C(Nc1cccc(-n2cc(-c3ccncc3)c(-c3ccc(O)c(Cl)c3)n2)c1)c1cccc(C(F)(F)F)c1 next.
Marked response: 5.33 µM

Exam item: Request: N[C@@H]1CCCC[C@@H]1N.O=P([O-])([O-])CN(CP(=O)([O-])[O-])CP(=O)([O-])[O-].[Pt+2]
Marked response: > 100 µM

---

Tested on: SR leukemia
Experiment: NCI tumour cell line growth inhibition, 48 h
In this section we review reported TGI values for a set of compounds.

{"compound": "CSc1nc(NC(C)C)c2c(n1)Sc1nc3ccccc3n1C2O (stereo unspecified)", "TGI": "> 100 µM"}
{"compound": "O=C(NNCc1ccc(Cl)cc1)Nc1cccc2ccccc12", "TGI": "> 100 µM"}
{"compound": "COC(=O)c1c(C)nc(C)c(NO)c1-c1ccccc1C(F)(F)F", "TGI": "> 100 µM"}
{"compound": "CC1COCC(C)N1C1=C(Cl)C(=O)c2ccccc2C1=O (stereo unspecified)", "TGI": "5.97 µM"}
{"compound": "CC1CC2(C)CC(=O)C1C1C(=O)N(CCN3CCCCC3)C(=O)C12 (stereo unspecified)", "TGI": "> 100 µM"}

Lab note: next compound to report on.
Exam item: May I ask what TGI has been recorded for CC1(C)OC2C(COS(N)(=O)=O)SC(n3cnc4cncnc43)C2O1 (stereo unspecified) ?
Marked response: > 100 µM

---

# key: entry, value: TGI
Tested on: NCI-H226 lung
Test: NCI tumour cell line growth inhibition, 48 h

{"compound": "Cc1nc(-n2nc(-c3ccccc3)cc2-c2ccccc2)sc1C(/C=C/c1ccc([N+](=O)[O-])cc1)=N/NC(=O)c1ccncc1", "TGI": "56.9 µM"}
{"compound": "CCN(CC)CCN(C(=O)C(C)(C)C)c1ccccc1N", "TGI": "> 100 µM"}
{"compound": "CN(C)C(=S)Oc1ccc2ccc(=O)oc2c1", "TGI": "> 100 µM"}
{"compound": "CCOC(=O)c1cnccc1CC1(C#N)c2ccccc2C=CN1C(=O)c1ccccc1 (stereo unspecified)", "TGI": "> 100 µM"}
{"compound": "COC(=O)/C(=N\\NC(N)=S)C(C#N)c1ccccc1 (stereo unspecified)", "TGI": "> 100 µM"}

Exam item: So what's the measured TGI for this one? CC(C)(C)C1CC[C@H](O)[C@H]([C@H](O)CC2CC(=O)N(c3ccccc3)C(=O)C2)C1 (stereo partly specified)
Marked response: > 100 µM

Exam item: Subsequent entry: CC1=C(C(=O)Nc2ccc(Cl)c(Cl)c2)C(c2ccccc2O)NC(=O)N1 (stereo unspecified)
Marked response: > 50 µM

Exam item: What would you report for CCOC(=O)C1CCCCN1CCc1c[nH]c2ccccc12 (stereo unspecified) ?
Marked response: > 100 µM

Exam item: What about CC(=O)Nc1cc(Nc2cc(=O)[nH]c(=O)[nH]2)ccc1C ?
Marked response: > 100 µM

Exam item: Now try COc1cc(NC(=O)Nc2cnc(Nc3ccc(N4CCOCC4)cc3)nc2Oc2cccc(OC)c2)cc(OC)c1 .
Marked response: 8.48 µM

Exam item: Cool, now CC1OC(OC2CCC3(C=O)C4CCC5(C)C(C6=CC(=O)OC6)CCC5(O)C4CCC3(O)C2)C(O)C(O)C1O (stereo unspecified)
Marked response: 0.000111 µM

Exam item: # repeat for CCOC(=O)C(=O)C(=O)NN(C)C1=NCCN1
Marked response: > 100 µM

Exam item: Next: COc1cccc(NC(=O)C(=O)C(C(C)=O)c2nc3ccc(Cl)cc3[nH]c2=O)c1 (stereo unspecified)
Marked response: > 100 µM

Exam item: Another compound to check: CCN(CC)c1nc(N(C)C)c2ccccc2n1
Marked response: 69.3 µM
